What follows is literature data on pIC50 for ERAP1 (Homo sapiens, UniProt Q9NZ08).
pIC50: −log10 of the molar value.
experimental-endpoint: pIC50

INSERT INTO measurements (molecule, experimental_endpoint, reported_value) VALUES
  ('C#CC1(Oc2cc(Cl)c(C#N)cc2NS(=O)(=O)c2cc(C(=O)O)ccc2C2CC2)CCCC1', 'pIC50', '8.30 to 9.00'),
  ('COc1ccc(C(=O)O)cc1S(=O)(=O)Nc1cc(-c2nn[nH]n2)ccc1N1CCCCC1', 'pIC50', '> 6.30'),
  ('N#Cc1ccc(-c2cccc(F)n2)c(NS(=O)(=O)c2cc(C(=O)O)ccc2C2CC2)c1', 'pIC50', '> 6.30'),
  ('O=C(O)c1ccc(C2CC2)c(S(=O)(=O)Nc2cc(C(F)(F)F)c(Cl)cc2C2CCCCN2)c1 (centres unmarked)', 'pIC50', '> 7.00'),
  ('COc1ccc(C(=O)O)cc1S(=O)(=O)Nc1cc(C#N)ccc1-c1ccc(C#N)s1', 'pIC50', '> 6.30'),
  ('COc1ccc(C(=O)O)cc1S(=O)(=O)Nc1cc(C(F)(F)F)ccc1N1CCCCC1', 'pIC50', '> 6.30'),
  ('CC(C)c1ccc(C(=O)O)cc1S(=O)(=O)Nc1cc(C(F)(F)F)ccc1N1CCCCC1', 'pIC50', '> 6.30'),
  ('COc1ccc(C(=O)O)cc1S(=O)(=O)Nc1cc(C(F)(F)F)ccc1N1CCC[C@H](F)C1', 'pIC50', '> 6.30'),
  ('O=C(O)c1ccc(C2CC2)c(S(=O)(=O)Nc2cc(-c3ccns3)ccc2-c2ccccn2)c1', 'pIC50', '> 6.30'),
  ('COc1ccc(C(=O)O)cc1S(=O)(=O)Nc1cc(C(F)(F)F)ccc1N1CCC[C@H](O)C1', 'pIC50', '> 6.30'),
  ('N#Cc1cc(NS(=O)(=O)c2cc(C(=O)O)ccc2C2CC2)c(OC2CCCC2(F)F)cc1Cl (centres unmarked)', 'pIC50', '> 9.00');

----------
What follows is literature data on IC50 for ERAP1 (Homo sapiens, UniProt Q9NZ08).
experimental-endpoint: IC50

INSERT INTO measurements (compound, experimental_endpoint, reported_value) VALUES
  ('O=C(O)c1ccc(OC(F)(F)F)c(S(=O)(=O)Nc2cc(C(F)(F)F)ccc2N2CCCCC2)c1', 'IC50', '< 500 nM'),
  ('COC1CCC(Oc2cc(Cl)c(C#N)cc2NS(=O)(=O)c2cc(C(=O)O)ccc2C2CC2)C1 (mixture of isomers)', 'IC50', '< 1 nM'),
  ('COc1ccc(C(=O)O)cc1S(=O)(=O)Nc1cc(C(F)(F)F)ccc1N1CCCC[C@@H]1C', 'IC50', '< 500 nM'),
  ('N#Cc1cc(NS(=O)(=O)c2cc(C(=O)O)ccc2C2CC2)c(O[C@H]2C[C@@H](C#N)C2)cc1Cl', 'IC50', '1 to 5 nM'),
  ('CCc1ccc(C(=O)O)cc1S(=O)(=O)Nc1cc(S(C)(=O)=O)ccc1N1CCC[C@@H](F)C1', 'IC50', '< 500 nM'),
  ('O=C(O)c1ccc(C2CC2)c(S(=O)(=O)Nc2cc(-c3ccns3)ccc2-c2ccccc2)c1', 'IC50', '< 500 nM'),
  ('COc1ccc(C(=O)O)cc1S(=O)(=O)Nc1cc(C#N)ccc1-c1ccccc1', 'IC50', '< 500 nM'),
  ('COc1ccc(C(=O)O)cc1S(=O)(=O)Nc1cc(C(F)(F)F)ccc1-c1ccncc1', 'IC50', '> 5000 nM'),
  ('N#Cc1cc(NS(=O)(=O)c2cc(C(=O)O)ccc2C2CC2)c(O[C@H]2C[C@@H](O)C2)cc1Cl', 'IC50', '> 5 nM'),
  ('CCc1ccc(C(=O)O)cc1S(=O)(=O)Nc1cc(C(F)(F)F)ccc1N1CCCCC1', 'IC50', '< 500 nM');

----------
What follows is literature data on pIC50 for ERAP1 (Homo sapiens, UniProt Q9NZ08).
pIC50: −log10 of the molar value.
experimental-endpoint: pIC50

INSERT INTO results (compound, experimental_endpoint, reported_value) VALUES
  ('CCc1ccc(C(=O)O)cc1S(=O)(=O)Nc1cc(-c2cnoc2)ccc1N1CCCCC1', 'pIC50', '> 6.30'),
  ('COc1ccc(C(=O)O)cc1S(=O)(=O)Nc1cc(C(F)(F)F)ccc1N1CC[C@@H](O)[C@@H](F)C1', 'pIC50', '> 5.30'),
  ('N#Cc1cc(NS(=O)(=O)c2cc(C(=O)O)ccc2C2CC2)c(C2CCCCN2)cc1Cl (stereo not drawn)', 'pIC50', '> 7.00'),
  ('CCc1ccc(C(=O)O)cc1S(=O)(=O)Nc1cc(C(F)(F)F)ccc1-c1ccc(C)s1', 'pIC50', '> 6.30'),
  ('N#Cc1cc(NS(=O)(=O)c2cc(C(=O)O)ccc2C2CC2)c(-c2ccsn2)cc1F', 'pIC50', '> 6.30'),
  ('COc1ccc(C(=O)O)cc1S(=O)(=O)Nc1cc(C(F)(F)F)ccc1N1[C@@H]2CC[C@H]1C[C@@H](O)C2', 'pIC50', '< 5.30'),
  ('N#Cc1ccc(-n2cccc2)c(NS(=O)(=O)c2cc(C(=O)O)ccc2C2CC2)c1', 'pIC50', '> 6.30'),
  ('CC1(C)CCC[C@@H]1Oc1cc(Cl)c(C#N)cc1NS(=O)(=O)c1cc(C(=O)O)ccc1C1CC1', 'pIC50', '> 9.00'),
  ('CCc1ccc(C(=O)O)cc1S(=O)(=O)Nc1cc(-c2nncs2)ccc1N1CCCCC1', 'pIC50', '> 6.30');
